In this section we review reported growth inhibition values for a set of compounds.
- experiment.summary: NCI Yeast Anticancer Drug Screen. Data for the mec2-1 strain (AID 157)
- test.conditions: S. cerevisiae mec2-1 strain, hits give high values; at 50.0 µM unless noted
- Description: Growth inhibition of yeast strains with defined genetic alterations is measured as a screen for potential anti-cancer activity. Selected strains with alterations in DNA damage repair or cell cycle control were exposed to compounds and growth inhibition was measured relative to vehicle treated controls. The strain used in this assay is mec2-1
This is part of a sample that, as a whole, favours compounds with a hit. Of some 79,000 tested, about 15% had one in any assay.
Kindly answer with a numeric value in %, unit omitted.

[Q] State its growth inhibition: CC(Oc1c(Cl)cc(Cl)cc1Cl)C(=O)O (stereo not given)
[A] -51.8

[Q] State its growth inhibition: NC(=O)c1c([N+](=O)[O-])ncn1C1OC(CO)C(O)C1O (stereo not given)
[A] -7.75

[Q] State its growth inhibition: O=C(Nc1cc(Cl)c(Cl)cc1Cl)C(=O)C(C(=O)c1ccccc1)C1OC(=O)c2ccccc21 (stereo not given)
[A] -34.8

Data credit: PubChem BioAssay (NCI)
